I'd appreciate it if you could supply EC50 values for the items below.
target: rat mGlu3 receptor (Rattus norvegicus (Rat), UniProt P31422); assay: mGlu3 in vitro GIRK thallium flux assay; format: cell-based; details: NAM; 2.5 min compound incubation; EC80 glutamate; HEK-293 GIRK cells
Sequence (P31422 23-879): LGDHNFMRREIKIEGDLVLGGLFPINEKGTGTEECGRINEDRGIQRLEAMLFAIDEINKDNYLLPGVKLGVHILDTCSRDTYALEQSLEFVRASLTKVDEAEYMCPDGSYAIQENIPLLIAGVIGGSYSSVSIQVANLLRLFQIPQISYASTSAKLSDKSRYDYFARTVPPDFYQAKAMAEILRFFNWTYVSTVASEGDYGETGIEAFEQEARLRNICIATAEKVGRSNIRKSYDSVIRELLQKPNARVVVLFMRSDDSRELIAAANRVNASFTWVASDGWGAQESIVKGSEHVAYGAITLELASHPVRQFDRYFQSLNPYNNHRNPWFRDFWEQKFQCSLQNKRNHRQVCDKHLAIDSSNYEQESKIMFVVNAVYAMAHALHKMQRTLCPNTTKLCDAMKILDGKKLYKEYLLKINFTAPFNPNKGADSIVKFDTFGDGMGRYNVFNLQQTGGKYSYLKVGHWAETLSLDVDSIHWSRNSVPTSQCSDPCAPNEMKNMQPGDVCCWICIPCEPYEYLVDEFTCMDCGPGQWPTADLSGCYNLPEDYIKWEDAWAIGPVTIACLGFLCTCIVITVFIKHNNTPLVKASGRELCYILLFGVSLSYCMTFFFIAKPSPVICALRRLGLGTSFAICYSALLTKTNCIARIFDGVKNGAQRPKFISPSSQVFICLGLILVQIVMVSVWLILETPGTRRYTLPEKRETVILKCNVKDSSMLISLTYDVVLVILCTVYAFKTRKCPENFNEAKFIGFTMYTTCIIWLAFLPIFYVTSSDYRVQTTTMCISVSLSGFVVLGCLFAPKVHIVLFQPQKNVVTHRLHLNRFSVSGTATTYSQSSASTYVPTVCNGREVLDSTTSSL
Just the number in µM, nothing appended.

Problem: Which EC50 is reported with rat mGlu3 receptor (Rattus norvegicus (Rat), UniProt P31422) for this entry: N#Cc1cc(C2=Nc3ccc(F)cc3NC(=O)C2)ccn1 ?
Solution: 0.86

Problem: Field entry: O=C(O)c1cc(-c2cccc(-c3csc(-c4ccccc4)n3)c2)ccc1Cl
Solution: 0.79

Problem: Field entry: O=C(O)c1cc(-c2cccc(-c3nc(-c4cc5ccccc5s4)cc(C(F)(F)F)n3)c2)ccc1F
Solution: 3.12

Problem: Field entry: O=C(O)c1cc(-c2cccc(-c3nc(-c4cccs4)cc(C(F)(F)F)n3)c2)ccc1F [Example 87A]
Solution: 1.26

Problem: Field entry: Cc1cc(Cl)ccc1-c1ccc2c(c1)NC(=O)CC(c1ccnc(Cl)c1)=N2
Solution: 2.94

Problem: Field entry: Cc1cc(-c2ccoc2)nc(-c2cccc(-c3cc(F)cc(C(=O)O)c3)c2)n1
Solution: 2.21

Problem: Field entry: O=C(O)c1cc(F)cc(-c2cccc(-c3nc(-c4ccccc4)n(-c4ccccc4)n3)c2)c1
Solution: 3.11

Problem: Field entry: O=C(O)c1cc(-c2cccc(-c3nc(-c4ccc(Cl)cc4)cc(C(F)(F)F)n3)c2)ccc1F
Solution: 2.47

Problem: Field entry: O=C1CC(c2ccnc(Cl)c2)=Nc2ccc(-c3cccnc3F)cc2N1
Solution: 1.7

Problem: Field entry: COc1ccc(-c2cc(C(F)(F)F)nc(-c3cccc(-c4ccc(F)c(C(=O)O)c4)c3)n2)cc1OC
Solution: 2.83

Problem: Field entry: O=C(O)c1cc(-c2cccc(-c3nc(-c4ccc(C(F)(F)F)nc4)cc(C(F)(F)F)n3)c2)ccc1F
Solution: 1.18

Problem: Field entry: CC(C)(C)c1ccc(-c2cc(C(F)(F)F)nc(-c3cccc(-c4ccc(F)c(C(=O)O)c4)c3)n2)cc1
Solution: 6.11

Problem: Field entry: Cc1cc2c(cc1C(F)(F)F)NC(=O)CC(c1cccc(S(=O)(=O)c3ncccn3)c1)=N2
Solution: 0.3

Problem: Field entry: O=C(O)c1cc(-c2cccc(-c3csc(-c4ccc(C(F)(F)F)nc4)n3)c2)ccc1F
Solution: 3.11

Problem: Field entry: N#Cc1cc(C2=Nc3ccc(Br)cc3NC(=O)C2)ccn1
Solution: 0.04
